System: CP215
Assay: qHTS profiling for inhibitors of Plasmodium falciparum proliferation (AID 504749); further: nearly all actives have a fitted effect of over 60% in size
Settings: P. falciparum in erythrocytes, SYBR Green DNA, 72 h; series mostly up to 28.7 µM
Results filed as inconclusive are left out. Active and inactive are the calls of the source. The call rests on the fitted dose curve; in most records, active means well fitted inhibition curve with a large enough effect; inconclusive means small, poorly fitted or top-dose-only effect; inactive means flat fitted curve, though single readings scatter.
Response enum: 1.0 = active, 0.0 = inactive

Solved entries:
[
  {
    "MOLECULE": "Cc1ccccc1",
    "LABEL CLASS": 0.0
  },
  {
    "MOLECULE": "C#C[C@]1(O)CC[C@H]2[C@@H]3CCC4=CCCC[C@@H]4[C@H]3C(=C)C[C@@]21CC",
    "LABEL CLASS": 0.0
  },
  {
    "MOLECULE": "O=C(O)c1cc(=O)c2c3nc4ccccc4oc-3cc(=O)c2[nH]1",
    "LABEL CLASS": 0.0
  },
  {
    "MOLECULE": "C#CCOc1ccc2c(C)cc(=O)oc2c1",
    "LABEL CLASS": 0.0
  },
  {
    "MOLECULE": "COC(F)(F)C(Cl)Cl",
    "LABEL CLASS": 0.0
  }
]

Please state the recorded outcome for this molecule: CCOc1ccc(N=Nc2ccc(N)cc2N)cc1
0.0

====

Test system: SKOV3
Experiment: Primary qHTS to identify gynecologic anti-cancer compounds using libraries of approved drugs and bioactive compounds (AID 1345084); further: nearly all actives have a fitted effect of over 55% in size
Settings: Gynecologic cancer cell panel viability, ATPlite luminescence, 48 h; series mostly up to 57.5 µM
Results filed as inconclusive are left out. Active and inactive are the calls of the source. The call rests on the fitted dose curve; in most records, active means well fitted cell-killing curve with a large enough effect; inconclusive means small, poorly fitted or top-dose-only effect, or effect the other way; inactive means flat fitted curve, though single readings scatter.

[
  {
    "COMPOUND": "C[C@H]1CN(C[C@H](Cc2ccccc2)C(=O)NCC(=O)O)CC[C@@]1(C)c1cccc(O)c1",
    "activity change, negative = cytotoxicity": "inactive"
  },
  {
    "COMPOUND": "C=C1CCC2C(C)(COC3OC(COC(=O)CC(=O)O)C(O)C(O)C3O)CCCC2(C)C1CCC1=CCOC1=O (centres undefined)",
    "activity change, negative = cytotoxicity": "inactive"
  },
  {
    "COMPOUND": "C=C1CC[C@H]2[C@@](C)(CCC(O)[C@@]2(C)CO)[C@@H]1C/C=C(/C(=O)O)C(O)CO (some centres undefined)",
    "activity change, negative = cytotoxicity": "inactive"
  },
  {
    "COMPOUND": "COc1cc(C2OCC3C(c4ccc(OC5OC(CO)C(O)C(O)C5O)c(OC)c4)OCC23)ccc1O (centres undefined)",
    "activity change, negative = cytotoxicity": "inactive"
  }
]

====

System: ICS
Assay: qHTS profiling for inhibitors of Plasmodium falciparum proliferation (AID 504749); further: nearly all actives have a fitted effect of over 60% in size
Details: P. falciparum in erythrocytes, SYBR Green DNA, 72 h; series mostly up to 28.7 µM
Inconclusive results are not listed. Activity calls are given as the source filed them. Calls follow the shape of the dose curve; as a rule, active = well fitted inhibition curve with a large enough effect; inconclusive = small, poorly fitted or top-dose-only effect; inactive = flat fitted curve, though single readings scatter.
Permitted responses: active, inactive

[
  {
    "COMPOUND": "CN=C(NC#N)Nc1ccc(C2=NNC(=O)C[C@@H]2C)cc1",
    "LABEL CLASS": "inactive"
  },
  {
    "COMPOUND": "O=C(O)c1cc(=O)c2c3nc4ccccc4oc-3cc(=O)c2[nH]1",
    "LABEL CLASS": "active"
  },
  {
    "COMPOUND": "CCOC(=O)C1=C(C)NC(C)=C(C(=O)OCC)C1c1ccccc1C=CC(=O)OC(C)(C)C",
    "LABEL CLASS": "active"
  },
  {
    "COMPOUND": "CC1=C(/C=C/C(C)=C/C=C/C(C)=C/C=C/C=C(C)/C=C/C=C(C)/C=C/C2=C(C)CCCC2(C)C)C(C)(C)CCC1",
    "LABEL CLASS": "inactive"
  },
  {
    "COMPOUND": "O=C(O)CCC(=O)C(=O)O",
    "LABEL CLASS": "inactive"
  },
  {
    "COMPOUND": "Clc1cc(Cl)c(OCC#CI)cc1Cl",
    "LABEL CLASS": "active"
  }
]

So what was the verdict on CCCCCCCC/C=C\CCCCCCCC(=O)O in this test?
inactive

Look up the recorded call for Nc1ncnc2c1ncn2[C@@H]1O[C@H](COP(=O)(O)OP(=O)(O)OP(=O)(O)O)[C@@H](O)[C@H]1O in this test.
inactive

# fetch the recorded call for COC(C(=O)C(O)C(C)O)C1Cc2cc3cc(OC4CC(OC5CC(O)C(O)C(C)O5)C(O)C(C)O4)c(C)c(O)c3c(O)c2C(=O)C1OC1CC(OC2CC(OC3CC(C)(O)C(O)C(C)O3)C(O)C(C)O2)C(O)C(C)O1 (stereo not given) here
active

Record lookup: outcome of this test for CC(NNC(=O)c1ccccc1)c1ccccc1 (stereo not given) ?
inactive

Outcome logged for CCCCCC(CC)COC(=O)CC(C(=O)OCC(CC)CCCC)S(=O)(=O)O (stereo not given) in this assay:
inactive

Recorded call for Cc1cc(C(=O)NNCc2ccccc2)no1 ?
inactive

// outcome(item) with item = CCCCCCCC(=O)O
inactive

Outcome logged for CC1=C(/C=C/C(C)=C/C=C/C(C)=C/C=C/C=C(C)/C=C/C=C(C)/C=C/C2=C(C)C(=O)CCC2(C)C)C(C)(C)CCC1=O in this assay:
inactive

So what was the verdict on CCCCCCCCCCCCCCCC(=O)OCC(COC(=O)CCCCCCCCCCCCCCC)OC(=O)CCCCCCCCCCCCCCC in this test?
inactive

What classification did COc1ccc2c3c1O[C@H]1C[C@@H](O)C=C[C@@]31CCN(C)C2 end up with in this test?
inactive

Identify the outcome logged in this assay for the compound shown: CC(C)(C)C(=O)OCOC(=O)[C@@H]1N2C(=O)[C@@H](N=CN3CCCCCC3)[C@H]2SC1(C)C
inactive

Please share the test call associated with CCCCC(C)(O)C/C=C/[C@H]1[C@H](O)CC(=O)[C@@H]1CCCCCCC(=O)OC (stereo not given in full) .
inactive

// param item: COC(F)(F)C(Cl)Cl ; yields the recorded call
inactive

Could you check what this test reported for Cc1ccccc1OCC(O)CNCCOc1ccc(C(N)=O)cc1 (stereo not given) ?
inactive
